- test target: UniProt:Q9UBY5
- test description: Agonistic activity as increased intracellular calcium level by human LPA3 receptor expressed in Sf9 cells
pEC50: −log10 of the molar value.
quantity kind: pEC50

Give the measured pEC50 of CCCCCCCCCCCCCCCC(=O)OC[C@H](CC(F)P(=O)(O)O)OC (some centres undefined) . < 5.00

Lookup CCCCCCCC/C=C/CCCCCCCC(=O)OC(CF)COP(=O)(O)O (single isomer, unassigned; form 2) ~6.70

Lookup CCCCCCCCCCCCCCCC(=O)OC(CF)COP(=O)(O)O (single isomer, unassigned) ~5.52

Lookup `CCCCCCCC/C=C/CCCCCCCC(=O)O[C@H](COC)COP(O)(O)=S` ~5.30

Lookup `CCCCCCCC/C=C/CCCCCCCC(=O)O[C@H](COP(=O)(O)O)C(F)F` < 5.00

---

- test target: Lysophosphatidic acid receptor 3 (Homo sapiens, UniProt Q9UBY5)
- test description: Agonistic activity as increased intracellular calcium level by human LPA3 receptor expressed in Sf9 cells
quantity kind: EC50

Reference set (2 entries):
CCCCCCCC/C=C/CCCCCCCC(=O)OC[C@@H](F)COP(=O)(O)O | > 10 µM
CCCCCCCC/C=C/CCCCCCCC(=O)OC[C@H](O)CC(F)(F)P(=O)(O)O | ~1 µM

Next, consider the following molecule.
Give the measured EC50 of `CCCCCCCCCCCCCCCC(=O)O[C@H](COP(=O)(O)O)C(F)F` . > 10 µM

---

- test target: Lysophosphatidic acid receptor 3 (Homo sapiens)
- test description: Agonistic activity as increased intracellular calcium level by human LPA3 receptor expressed in Sf9 cells
quantity kind: EC50 (nM)

A = CCCCCCCCCCCCCCCC(=O)OC[C@@H](O)CC(F)P(=O)(O)O (some centres undefined)
B = CCCCCCCC/C=C/CCCCCCCC(=O)O[C@H](COC)CC(F)P(=O)(O)O (some centres undefined)
Select one. Lower EC50: A or B Pick one; state its label. B
(B: 5 nM, A: 20 nM)

---

Items are presented alongside their recorded pEC50.
- test target: Lysophosphatidic acid receptor 3 (Homo sapiens)
- Sequence (Q9UBY5 whole entry): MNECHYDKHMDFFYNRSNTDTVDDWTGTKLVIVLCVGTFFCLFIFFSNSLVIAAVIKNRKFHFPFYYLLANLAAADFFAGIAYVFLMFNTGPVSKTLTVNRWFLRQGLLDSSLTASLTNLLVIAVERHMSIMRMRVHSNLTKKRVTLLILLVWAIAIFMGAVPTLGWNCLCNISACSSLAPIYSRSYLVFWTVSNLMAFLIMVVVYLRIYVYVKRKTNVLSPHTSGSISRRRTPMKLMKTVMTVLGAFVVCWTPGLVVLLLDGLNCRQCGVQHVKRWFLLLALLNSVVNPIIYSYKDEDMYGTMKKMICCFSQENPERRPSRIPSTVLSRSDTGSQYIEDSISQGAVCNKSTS
- test description: Agonistic activity as increased intracellular calcium level by human LPA3 receptor expressed in Sf9 cells
pEC50: −log10 of the molar value.

Reference set (3 entries):
CCCCCCCC/C=C/CCCCCCCC(=O)OC[C@H](O)CC(F)P(=O)(O)O (stereo partly specified) | 6.30
CCCCCCCC/C=C/CCCCCCCC(=O)O[C@H](COP(=O)(O)O)CC(F)F | < 5.00
CCCCCCCC/C=C/CCCCCCCC(=O)OC[C@H](F)COP(=O)(O)O | ~6.00

Give the measured pEC50 of CCCCCCCCCCCCCCCC(=O)O[C@H](COC)CC(F)P(=O)(O)O (stereo partly specified) . ~5.00

Lookup `CCCCCCCC/C=C/CCCCCCCC(=O)OC[C@@H](O)CC(F)(F)P(=O)(O)O` 6.30

Lookup CCCCCCCCCCCCCCCC(=O)OC[C@H](O)CC(F)P(=O)(O)O (stereo partly specified) < 5.00

meta.source: ChEMBL document CHEMBL1144418
